Kindly supply the reported TGI values for the records listed here.
- Test system: K-562 leukemia
- assay: NCI tumour cell line growth inhibition, 48 h

Sample records with TGI:
COc1ccc(N=Nc2c(-c3c(OC)cc4occc4c3OC)[nH]c(=O)c(C#N)c2C)cc1 :: > 100 µM
Cn1nc(-c2ccc(S(=O)(=O)/N=C(\NN)Nc3ccc(Cl)cc3)s2)cc1C(F)(F)F :: 35.4 µM
Cc1ccc2cccc(-c3cccc4ccccc34)c2n1 :: 21 µM
CC1=N/C(=C\c2ccc(/C=C3/N=C(C)OC3=O)cc2)C(=O)O1 :: > 100 µM
c1ccc(-c2c(-c3ccccc3)[n+](Cc3ccc4ccccc4c3)c(-c3ccc(-c4nc5ccccc5s4)cc3)n2Cc2ccc3ccccc3c2)cc1 :: 3.79 µM

Please give TGI, item by item, for the list that follows.
1. COc1cc2oc(-c3ccc(O)cc3)cc(=O)c2c(O)c1C1OC(CO)C(O)C(O)C1O (configuration not stated)
2. COCOc1ccc(C(=O)Oc2cccc3c2OC(C)(C)O3)c(OCOC)c1
3. Cc1nc2ccccc2nc1CC(=O)C(=O)Nc1ccc(Cl)cc1Cl
4. CSCC[C@@H](NC(=O)[C@H](CC(C)C)NC(=O)C(Cc1cnc[nH]1)NC(=O)CNC(=O)[C@@H](NC(=O)[C@H](C)NC(=O)[C@H](Cc1c[nH]c2ccccc12)NC(=O)[C@H](CCC(N)=O)NC(=O)[C@@H](N)CC(N)=O)C(C)C)C(N)=O (some centres not stated)
5. O=C(ON=C1c2ccccc2C(Br)C(Br)c2ccccc21)c1ccccc1 (configuration not stated)
6. COc1ccc(OC)c(/C=C/c2nc(=S)n(-c3ccc(Cl)cc3)[nH]2)c1

Outgoing:
> 100 µM
> 100 µM
> 100 µM
> 100 µM
8.98 µM
> 100 µM

Please give TGI, item by item, for the list that follows.
1. CN[C@@H](C)C(=O)N[C@H]1CN(S(=O)(=O)c2cccc(S(=O)(=O)N3CC[C@H]4CC[C@@H](C(=O)NC(c5ccccc5)c5ccccc5)N4C(=O)[C@@H](NC(=O)[C@H](C)NC)C3)c2)CC[C@H]2CC[C@@H](C(=O)NC(c3ccccc3)c3ccccc3)N2C1=O
2. N#CC(C(=O)C(=O)Nc1c(Cl)cccc1Cl)c1ccccc1 (configuration not stated)
3. O=C(Nc1ccc(N=C=S)cc1Cl)c1cc(Br)cc(Br)c1O
4. OCc1cn(Cc2ccccc2)c2ccccc12
5. COc1ccc2c(N)ncc(C#Cc3cc(C(=O)Nc4ccc(CN5CCN(C)CC5)c(C(F)(F)F)c4)cnc3C)c2c1
6. O=C(COc1ccc(OCC(=O)N/N=C/c2ccc(-c3ccc(Cl)cc3Cl)o2)c(Cl)c1)N/N=C/c1ccc(-c2ccc(Cl)cc2Cl)o1
7. COc1ccc(OC)c(NCC(=O)n2nc(/C=C\c3ccc(O)c(OC)c3)cc2/C=C\c2ccc(O)c(OC)c2)c1
8. CC(=O)c1ccc(Oc2c3ccccc3nc3ccccc23)cc1

Outgoing:
1. > 100 µM
2. > 100 µM
3. 97.1 µM
4. > 100 µM
5. 1.02 µM
6. 50.2 µM
7. > 100 µM
8. 20.1 µM

Please give TGI, item by item, for the list that follows.
1. COC(=O)CCC(NC(=S)N/N=C/c1cccs1)C(=O)OC (configuration not stated)
2. O=C(O)c1nc2ccc(C(F)(F)F)cc2[nH]c1=O

Outgoing:
["> 100 µM", "> 100 µM"]

---

Kindly supply the reported TGI values for the records listed here.
- Tested on: COLO 205 colon
- assay: NCI tumour cell line growth inhibition, 48 h

Sample records with TGI:
NCCN1CCCCCc2ccccc21 :: > 10 µM
O=[N+]([O-])c1cccc(C2=NN(c3ccccc3)C3c4cc(Br)ccc4OCC23)c1 (stereo unspecified) :: > 100 µM
O=C(c1ccco1)N(C(=O)N1CCCCC1)c1ccccc1 :: > 100 µM
Nc1ncc(Cc2ccc3c(c2)OCO3)c(N)n1 :: > 100 µM

Please give TGI, item by item, for the list that follows.
1. Cc1nc(N)nc(CCC(=O)Nc2cccc(C(F)(F)F)c2)c1-c1ccc(Cl)cc1
2. CC1(C)N=C(N)N=C(N)N1c1ccc(CCC(=O)Nc2ccc(S(=O)(=O)F)cc2)cc1
3. CC(=O)Nc1nc(Cl)cc(NCC2(CO)CCC2)n1
4. COc1cccc(C2c3cc4c(cc3OC(O)C2C)OCO4)c1OC (stereo unspecified)
5. COC(=O)CCC(NC(=S)N/N=C/c1cccs1)C(=O)OC (stereo unspecified)
6. CC(=O)ON1CCCC(P(=O)(OCOC(=O)C(C)(C)C)OCOC(=O)C(C)(C)C)C1=O (stereo unspecified)

Outgoing:
1. > 100 µM
2. > 100 µM
3. > 100 µM
4. 19.7 µM
5. > 100 µM
6. 5.71 µM

Just so you know, measured TGI for `O=c1c2ccccc2sc2c(CO)ccc(NCCN3CCCCC3)c12` came out at 4.78 µM

---

- Test system: SF-539 CNS
- assay: NCI tumour cell line growth inhibition, 48 h; in the data active = GI50 below about 0.43 µM; inactive = the rest
Outcomes you can answer with include only these: T (active), F (inactive)

// known answers, use as guide
COc1ccc(OC)c(/C=C/c2nc(=S)n(-c3ccc(Cl)cc3)[nH]2)c1 :: F
O=C1C=C[C@H](O)[C@@]2(CO)O[C@@H]12 :: F
O=C(OCc1ccc2c(Br)cc(Br)c(O)c2n1)c1cc2ccccc2[nH]1 :: F

Incoming: Could you check what this test reported for `COc1ccc2sc3c(NCCCN)nc4ccccc4c3c(=O)c2c1` ?
Outgoing: F

Incoming: Could you check what this test reported for `COc1cc2c(N3CCN(C(=O)Nc4ccc(OC(C)C)cc4)CC3)ncnc2cc1OCCCN1CCCCC1` ?
Outgoing: F

Incoming: Could you check what this test reported for `Cc1c2ccnc(C(N)=O)c2c(C)c2c1[nH]c1ccccc12` ?
Outgoing: F

Incoming: Could you check what this test reported for `CCCCCOc1ccc(/C=N/Nc2cc(C)nc3ccc(Cl)cc23)cc1` ?
Outgoing: F

Incoming: Could you check what this test reported for COC(=O)OC1C(O[C@H]2C[C@H]3[C@@H]4CC=C5C[C@@H](O)CC[C@]5(C)[C@H]4CC[C@]3(C)[C@H]2[C@H](C)C(=O)CCC(C)C)OCC(O)C1OC1OCC(O)C(O)C1OC(=O)c1ccc(OC)cc1 (some centres undefined) ?
Outgoing: T

---

- System: OVCAR-4 ovarian
- assay: NCI tumour cell line growth inhibition, 48 h; in the data active means GI50 below about 0.43 µM; inactive means the rest
Outcomes you can answer with include only these: active, inactive

// known answers, use as guide
COc1ccc2c(c1)c(-c1nc(-c3c[nH]c4ncccc34)cs1)cn2CCCN1CCOCC1 :: inactive
CCCCCCCCCCCCCCCCCCOc1ccccc1CC(=O)NCC[N+]1(C)CCOCC1 :: inactive
c1ccc(-c2[nH]ncc2-c2ccnc(-c3ccc(OCCn4ccnc4)cc3)c2)nc1 :: inactive
COC(=O)OC1C(O[C@H]2C[C@H]3[C@@H]4CC=C5C[C@@H](O)CC[C@]5(C)[C@H]4CC[C@]3(C)[C@H]2[C@H](C)C(=O)CCC(C)C)OCC(O)C1OC1OCC(O)C(O)C1OC(=O)c1ccc(OC)cc1 (stereo partly specified) :: active

Incoming: Could you check what this test reported for Nc1ncnc2c1N=C(c1ccc3c(c1)OCO3)CC(c1ccc(Cl)cc1)N2 (stereo unspecified) ?
Outgoing: inactive

Incoming: Could you check what this test reported for `O=C1C=C[C@H](O)[C@@]2(CO)O[C@@H]12` ?
Outgoing: inactive

Incoming: Could you check what this test reported for COC1N(C2CC(O)C(CO)O2)C(=O)NC(=O)C1(F)Br (stereo unspecified) ?
Outgoing: inactive

Incoming: Could you check what this test reported for `CNC(=O)c1ncccc1Nc1nc(Nc2cc3c(cc2OC)CCCN3C(=O)CN(C)C)nc2[nH]ccc12` ?
Outgoing: inactive

Incoming: Could you check what this test reported for `O=C(Nc1cccc(-n2cc(-c3ccncc3)c(-c3cc(O)cc(Cl)c3)n2)c1)c1ccc(N2CCOCC2)c(C(F)(F)F)c1` ?
Outgoing: inactive

Incoming: Could you check what this test reported for `OC1(c2ccc(Cl)c(C(F)(F)F)c2)CCN(CCCC(c2ccc(F)cc2)c2ccc(F)cc2)CC1` ?
Outgoing: inactive

Incoming: Could you check what this test reported for `CCNc1nc(O)c(/C=C2\C=Nc3ncccc32)s1` ?
Outgoing: inactive

---

- Test system: ACHN renal
- assay: NCI tumour cell line growth inhibition, 48 h
reported.endpoint: GI50

O=C1NC(=N[C@@H](CO)c2ccccc2)S/C1=C\c1ccc2ncccc2c1 :: 3.97 µM
COc1ccc(C(=O)c2cc(OC)c(OC)c(OC)c2OC)cc1O :: 8.94 µM
CCCCCCCCCCCCCCCCCCOc1ccccc1CC(=O)NCC[N+]1(C)CCOCC1 :: 16 µM
CN[C@@H](C)C(=O)N[C@H]1CN(S(=O)(=O)c2cccc(S(=O)(=O)N3CC[C@H]4CC[C@@H](C(=O)NC(c5ccccc5)c5ccccc5)N4C(=O)[C@@H](NC(=O)[C@H](C)NC)C3)c2)CC[C@H]2CC[C@@H](C(=O)NC(c3ccccc3)c3ccccc3)N2C1=O :: > 79.7 µM
O=C(NCCNCCO)c1ccc2c(c1)oc1cc3ccccc3c(=O)n12 :: 19 µM

Please give GI50, item by item, for the list that follows.
1. O=C(Nc1cccc(-n2cc(-c3ccncc3)c(-c3cc(O)cc(Cl)c3)n2)c1)c1ccc(N2CCOCC2)c(C(F)(F)F)c1
2. Cc1ccc(O)cc1Nc1ccnc2ccc(S(C)(=O)=O)cc12
3. O=C1NN(C2=NNC3(C(=O)N2)c2ccccc2-c2ccccc23)C(c2ccccc2)=N/C1=C/c1ccc(Cl)cc1
4. Nc1nc2c(c3cnccc13)C(c1ccc(Cl)c(Cl)c1)Cc1cnccc1-2 (stereo not given)
5. CCn1cc(C(=O)O)c(=O)c2cc(F)c(N3CCN(S(=O)(=O)c4cccc5ccccc45)CC3)cc21

Outgoing:
1.84 µM
0.612 µM
50.4 µg/mL
0.807 µM
2.88 µM
